Recorded measurements of normalized growth, one per entry
Test: chemical genetic growth profiling, strain panel (AID 1159580);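 also: tested at 20 µM; growth read once vehicle control cultures reached saturation at 30 °C; 1 = growth at the plate median or of vehicle wells; lower values mean less growth of the strain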
Conditions: S. cerevisiae deletion strains, growth OD, locus YGL248W, strain PDE1, stronger effect = lower value
Screen size: about 5,500 compounds; about 2,000 (36%) were called active. About 18% were inconclusive and are not listed. The list shows a part of the results.

Solved cases (4 shown):
[
  {
    "molecule": "O=C(O)c1cc(=O)c2cc(Cl)ccc2[nH]1",
    "normalized growth": "1.02 (inactive)"
  },
  {
    "molecule": "Nc1nc2[nH]c(=O)c(=O)[nH]c2c(=O)[nH]1",
    "normalized growth": "1.01 (inactive)"
  },
  {
    "molecule": "CC(=O)OCC(CCn1cnc2cnc(N)nc21)COC(C)=O",
    "normalized growth": "0.987 (inactive)"
  },
  {
    "molecule": "NC(N)=Nc1nc(CSCCC(N)=NS(N)(=O)=O)cs1",
    "normalized growth": "0.985 (inactive)"
  }
]

### Prompt Which normalized growth reading was recorded for the molecule CC(C(=O)O)c1ccc2c(c1)[nH]c1ccc(Cl)cc12 (configuration not stated) ?
### Response 1.01 (inactive)

### Prompt Further, for `COc1ccc2c(c1)OC[C@@H](Cc1ccc(OC)c(OC)c1)[C@@H]2O` ?
### Response 0.996 (inactive)

### Prompt Same read-out for COc1cc(OC)c2c(c1)OC(c1ccc(OC)c(OC)c1)C(O)C2 (configuration not stated) ?
### Response 1.06 (inactive)

### Prompt Moving on to the next molecule: COc1ccc(CC2c3cc(OC)c(OC)cc3CCN2C)cc1OC (configuration not stated)
### Response 0.978 (inactive)

### Prompt Now consider `Oc1ccc(O)cc1` .
### Response 0.975 (inactive)

### Prompt Also `Cc1ccc(O)cc1` , if possible.
### Response 1.07 (inactive)

### Prompt Same question, `C/C=C(/C(=C/C)c1ccc(O)cc1)c1ccc(O)cc1` this time
### Response 0.81 (active)

### Prompt Param item: `O=[N+]([O-])O[C@H]1CO[C@H]2[C@@H]1OC[C@H]2O[N+](=O)[O-]`
### Response 0.999 (inactive)
